Tested on: HIV-1 LTR-III G-quadruplex (FAM/TAMRA-labeled LTR-III)
Assay: FRET melting assay, LTR-III G4
Type: binding
Conditions: Table S1 primary screening, ligand:ODN 50:1, singlicate
attribute measured: LTR-III ΔTm

See these solved cases before continuing.
Kindly note the recorded LTR-III ΔTm for "CC1=NC(=Cc2ccccc2O)C(=O)N1" , which is 0 °C

Sample "CC(=O)NC(=Cc1ccccc1)C(=O)NO" ; LTR-III ΔTm observed: 0 °C

Recorded result, CCN(CC)c1ccc(C=C2N=C(C=Cc3ccc(OC)cc3)N(C)C2=O)c(B(F)F)c1 [M 1971a] , LTR-III ΔTm: -0.3 °C

New cases:
Reported LTR-III ΔTm of "COc1cc(O)ccc1C=C1N=C(Cc2ccccc2)N(C)C1=O" : 0 °C

Summary for this molecule, "CCC1=NC(=Cc2c[nH]c3ccccc23)C(=O)N1C" : LTR-III ΔTm is 0 °C
